assay: Cmax in Sprague-Dawley rat at 25 mg/kg, po; type: ADME, organism-based; set-up: dose 25 mg/kg, route oral; settings: in vivo
readout-type: Cmax (ng/mL)
The answer is to be given in ng/mL; state only the numeric part.

// query Fill in the blank: the reported Cmax of "Cc1cc(-c2c(Cl)cccc2Cl)cc2nnc(Nc3ccc(OCC[N+]4([O-])CCCC4)cc3)nc12" is ____.
// result 160

###

assay: AUC (0 to infinity) in BALB/c mouse at 40 mg/kg, po; format: ADME, organism-based; set-up: time infinity, dose 40 mg/kg, route oral; conditions: plasma
readout-type: AUC(0-inf)

- Cc1cc(-c2c(Cl)cccc2Cl)cc2nnc(Nc3ccc(OCC[N+]4([O-])CCCC4)cc3)nc12: 13400 ng·h/mL

Next:
// query So what does the record say about AUC(0-inf) for "Cc1cc(-c2c(Cl)cccc2Cl)cc2nnc(Nc3ccc(OCCN4CCCC4)cc3)nc12" ?
// result 35100 ng·h/mL

###

experiment: Tmax in Sprague-Dawley rat at 25 mg/kg, po; assay type: ADME, organism-based; design: dose 25 mg/kg, route oral; conditions: in vivo
readout-type: Tmax (h)
Lab book: enter the figure in h, no units written.

* Cc1cc(-c2c(Cl)cccc2Cl)cc2nnc(Nc3ccc(OCC[N+]4([O-])CCCC4)cc3)nc12 | 3.5

# input for lookup
// query Given the molecule "Cc1cc(-c2c(Cl)cccc2Cl)cc2nnc(Nc3ccc(OCCN4CCCC4)cc3)nc12" , what is its reported Tmax?
// result 8

###

assay: Half life in BALB/c mouse at 5 mg/kg, ip; assay type: ADME, organism-based; set-up: dose 5 mg/kg, route intraperitoneal; details: in vivo
readout-type: half-life (h)
// units = h; emit number, no label

// query Quick one: half-life for "Cc1cc(-c2c(Cl)cccc2Cl)cc2nnc(Nc3ccc(OCC[N+]4([O-])CCCC4)cc3)nc12" ?
// result 2.8

###

experiment: AUC (0 to infinity) in BALB/c mouse at 25 mg/kg, po; assay type: ADME, organism-based; design: time infinity, dose 25 mg/kg, route oral; settings: plasma
List of AUC(0-inf) values.
# unit: ng·h/mL | format: bare number

• Cc1cc(-c2c(Cl)cccc2Cl)cc2nnc(Nc3ccc(OCCN4CCCC4)cc3)nc12 = 15300

Now consider the entry below.
// query So what does the record say about AUC(0-inf) for "Cc1cc(-c2c(Cl)cccc2Cl)cc2nnc(Nc3ccc(OCC[N+]4([O-])CCCC4)cc3)nc12" ?
// result 939

###

assay: Volume of distribution in BALB/c mouse at 5 mg/kg, iv; assay type: ADME, organism-based; design: dose 5 mg/kg, route intravenous; settings: in vivo
readout-type: Vd (L/kg)
Write it as a number; the unit L/kg goes unstated.

• Cc1cc(-c2c(Cl)cccc2Cl)cc2nnc(Nc3ccc(OCCN4CCCC4)cc3)nc12 = 9.4

# next compound below
// query Which Vd is listed for "Cc1cc(-c2c(Cl)cccc2Cl)cc2nnc(Nc3ccc(OCC[N+]4([O-])CCCC4)cc3)nc12" ?
// result 1.2
